Give IC50 for every item shown.
# Target under test: human TrkA receptor (Homo sapiens (Human), UniProt P04629)
# Sequence (P04629 33-796): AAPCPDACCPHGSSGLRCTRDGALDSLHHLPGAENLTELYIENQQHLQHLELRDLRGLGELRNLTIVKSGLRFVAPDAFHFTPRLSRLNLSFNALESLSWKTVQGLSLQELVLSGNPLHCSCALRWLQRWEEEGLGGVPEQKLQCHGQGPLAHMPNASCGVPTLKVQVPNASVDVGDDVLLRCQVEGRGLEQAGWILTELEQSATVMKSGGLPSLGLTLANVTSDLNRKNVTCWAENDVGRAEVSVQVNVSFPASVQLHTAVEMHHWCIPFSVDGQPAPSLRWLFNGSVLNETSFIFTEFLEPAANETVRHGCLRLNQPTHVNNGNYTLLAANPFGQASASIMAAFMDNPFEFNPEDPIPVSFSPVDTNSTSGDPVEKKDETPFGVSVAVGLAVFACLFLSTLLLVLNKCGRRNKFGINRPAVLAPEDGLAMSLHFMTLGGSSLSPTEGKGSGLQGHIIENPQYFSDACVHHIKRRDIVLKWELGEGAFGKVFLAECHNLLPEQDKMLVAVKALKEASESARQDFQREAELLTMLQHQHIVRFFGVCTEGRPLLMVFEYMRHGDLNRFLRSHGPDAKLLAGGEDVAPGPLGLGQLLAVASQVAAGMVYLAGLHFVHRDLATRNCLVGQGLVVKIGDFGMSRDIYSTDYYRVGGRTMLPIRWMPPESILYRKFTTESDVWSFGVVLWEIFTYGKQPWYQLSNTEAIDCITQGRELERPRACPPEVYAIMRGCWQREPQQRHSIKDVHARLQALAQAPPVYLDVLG
# Method summary: DiscoverX PathHunter TrkA functional assay (NGF-stimulated U2OS cells)
# Condition: U2OS cells expressing human TrkA-PK, Shc1-EA and p75NTR; compound 1 h, then NGF at ~80% of maximal response for 3 h; luminescence
// note: answer is a bare numeric in nM

Record CC(=O)NCc1cccc(-c2nc(C)ncc2NC(=O)c2cc(-c3ccn(C)n3)c(C(F)(F)F)cc2F)c1 [Example 132] ; system human TrkA receptor (Homo sapiens (Human), UniProt P04629); IC50 = 16

Record Cn1ccc(-c2cc(C(=O)Nc3cnc(CN4C(=O)CNC4=O)nc3-c3ccccc3)c(F)cc2C(F)(F)F)n1 [Example 96] ; system human TrkA receptor (Homo sapiens (Human), UniProt P04629); IC50 = 0.083

Record NC(=O)Cc1ncc(NC(=O)c2cc(-c3cc[nH]n3)c(C(F)(F)F)cc2F)c(-c2ccccc2)n1 [Example 126] ; system human TrkA receptor (Homo sapiens (Human), UniProt P04629); IC50 = 17

Record Cn1ccc(-c2cc(C(=O)Nc3cnc(C(C)(C)C(=O)O)nc3-c3ccccc3)c(F)cc2C(F)(F)F)n1 [Example 121] ; system human TrkA receptor (Homo sapiens (Human), UniProt P04629); IC50 = 8

Record Cc1ncc(NC(=O)c2cc(-c3ncccn3)c(C(F)(F)F)cc2F)c(-c2ccccc2)n1 [Example 28] ; system human TrkA receptor (Homo sapiens (Human), UniProt P04629); IC50 = 9.6

Record Cn1ccc(-c2cc(C(=O)Nc3cnc(CN4CCNC4=O)nc3-c3ccccc3)c(F)cc2C(F)(F)F)n1 [Example 77] ; system human TrkA receptor (Homo sapiens (Human), UniProt P04629); IC50 = 1

Record Cn1ccc(-c2cc(C(=O)Nc3cnc(OCC(N)=O)nc3-c3ccccc3)c(F)cc2C(F)(F)F)n1 [Example 216] ; system human TrkA receptor (Homo sapiens (Human), UniProt P04629); IC50 = 1.8

====

# Target under test: human TrkA receptor (Homo sapiens (Human), UniProt P04629)
# Method summary: DiscoverX PathHunter TrkA functional assay (NGF-stimulated U2OS cells)
# Condition: U2OS cells expressing human TrkA-PK, Shc1-EA and p75NTR; compound 1 h, then NGF at ~80% of maximal response for 3 h; luminescence
pIC50: −log10 of the molar value.
Returns one of TRUE or FALSE; TRUE when pIC50 is >= 8.

Answer whether pIC50 of Cn1ccc(-c2cc(C(=O)Nc3cnc(C4CCCNC4=O)nc3-c3ccccc3)c(F)cc2C(F)(F)F)n1 (centres unmarked) [Example 193] is greater than or equal to 8. TRUE

Answer whether pIC50 of Cn1ccc(-c2cc(C(=O)Nc3cc4c(nc3-c3ccccc3)CCN(C(N)=O)C4)c(F)cc2C(F)(F)F)n1 [Example 154] is greater than or equal to 8. TRUE

Answer whether pIC50 of Cn1ccc(-c2cc(C(=O)Nc3ccc(C4CN(C(=O)CO)C4)nc3-c3ccccc3)c(F)cc2C(F)(F)F)n1 [Example 206] is greater than or equal to 8. TRUE

Answer whether pIC50 of Cn1ccc(-c2cc(C(=O)Nc3cnc(CCC(N)=O)nc3-c3ccccc3)c(F)cc2C(F)(F)F)n1 [Example 128] is greater than or equal to 8. TRUE

Answer whether pIC50 of Cn1ccc(-c2cc(C(=O)Nc3cnc(COC(N)=O)nc3-c3ccccc3)c(F)cc2C(F)(F)F)n1 [Example 80] is greater than or equal to 8. TRUE

Answer whether pIC50 of Cc1nc(CO)c(NC(=O)c2ccc(C(F)(F)F)c(-c3ccn(C)n3)c2)c(-c2ccccc2)n1 [Example 46] is greater than or equal to 8. FALSE

Answer whether pIC50 of Cn1ccc(-c2cc(C(=O)Nc3nccnc3-c3ccccc3)ccc2C(F)(F)F)n1 [Example 25] is greater than or equal to 8. FALSE

Answer whether pIC50 of Cn1ccc(-c2cc(C(=O)Nc3cnc(CN4CCCC4=O)nc3-c3ccccc3)c(F)cc2C(F)(F)F)n1 [Example 219] is greater than or equal to 8. TRUE

Answer whether pIC50 of Cn1ccc(-c2cc(C(=O)Nc3ccc(CN4C(=O)CNC4=O)nc3-c3ccccc3)c(F)cc2C(F)(F)F)n1 [Example 98] is greater than or equal to 8. TRUE

Answer whether pIC50 of Cn1ccc(-c2cc(C(=O)Nc3cnc(C(C)(C)C(N)=O)nc3-c3ccccc3)c(F)cc2C(F)(F)F)n1 [Example 122] is greater than or equal to 8. FALSE

Answer whether pIC50 of Cc1cc(C)n(-c2cc(C(=O)Nc3cnc(C)nc3-c3ccccc3)ccc2F)n1 [Example 13] is greater than or equal to 8. FALSE

Answer whether pIC50 of Cc1cc(-c2nc(C)ncc2NC(=O)c2ccc(C(F)(F)F)c(-c3nc(C)cs3)c2)[nH]n1 [Example 18] is greater than or equal to 8. FALSE

Answer whether pIC50 of Cn1ccc(-c2cc(C(=O)Nc3cnc(C(O)C(N)=O)nc3-c3ccccc3)c(F)cc2C(F)(F)F)n1 (centres unmarked) [Example 118] is greater than or equal to 8. TRUE

Answer whether pIC50 of Cn1ccc(-c2cc(C(=O)Nc3cnc(CN4CC(CO)OC4=O)nc3-c3ccccc3)c(F)cc2C(F)(F)F)n1 (single isomer, unassigned) [Example 228] is greater than or equal to 8. TRUE

Answer whether pIC50 of Cn1ccc(-c2cc(C(=O)Nc3cnc(CC(=O)N[C@H]4CCOC4)nc3-c3ccccc3)c(F)cc2C(F)(F)F)n1 [Example 110] is greater than or equal to 8. TRUE

Answer whether pIC50 of O=C(Nc1cc2c(nc1-c1ccccc1)CCNC2=O)c1cc(-c2ncccn2)c(C(F)(F)F)cc1F [Example 139] is greater than or equal to 8. TRUE

Answer whether pIC50 of Cn1ccc(-c2cc(C(=O)Nc3cnc(CC(=O)NCCO)nc3-c3ccccc3)c(F)cc2C(F)(F)F)n1 [Example 108] is greater than or equal to 8. TRUE

Answer whether pIC50 of CC(=O)Nc1cccc(-c2nc(C)ncc2NC(=O)c2cc(-c3ccn(C)n3)c(C(F)(F)F)cc2F)c1 [Example 133] is greater than or equal to 8. TRUE

Answer whether pIC50 of Cn1ccc(-c2cc(C(=O)Nc3cnc(CNC(=O)C4CC4)nc3-c3ccccc3)ccc2C(F)(F)F)n1 [Example 51] is greater than or equal to 8. TRUE

Answer whether pIC50 of Cn1ccc(-c2cc(C(=O)Nc3ccc(CNC(=O)CO)nc3-c3ccccc3)ccc2C(F)(F)F)n1 [Example 53] is greater than or equal to 8. TRUE

Answer whether pIC50 of C[C@@H](O)C(=O)N1CCc2nc(-c3ccccc3)c(NC(=O)c3ccc(C(F)(F)F)c(-c4ccn(C)n4)c3)cc2C1 [Example 163] is greater than or equal to 8. TRUE

Answer whether pIC50 of C[C@@H](O)C(=O)NCc1cnc(NC(=O)c2cc(-c3ccn(C)n3)c(C(F)(F)F)cc2F)c(-c2ccccc2)n1 [Example 71] is greater than or equal to 8. TRUE

Answer whether pIC50 of CCN(C)C(=O)Cc1ncc(NC(=O)c2cc(-c3ccn(C)n3)c(C(F)(F)F)cc2F)c(-c2ccccc2)n1 [Example 115] is greater than or equal to 8. TRUE

Answer whether pIC50 of Cn1ccc(-c2cc(C(=O)Nc3cnc(NC(=O)CO)nc3-c3ccccc3)c(F)cc2C(F)(F)F)n1 [Example 209] is greater than or equal to 8. TRUE

Answer whether pIC50 of Cn1ccc(-c2cc(C(=O)Nc3cnc(C(N)C(N)=O)nc3-c3ccccc3)c(F)cc2C(F)(F)F)n1 (centres unmarked) [Example 130] is greater than or equal to 8. TRUE

Answer whether pIC50 of CNC(=O)c1cnc(-c2ccccc2)c(NC(=O)c2cc(-c3ccn(C)n3)c(C(F)(F)F)cc2F)c1 [Example 83] is greater than or equal to 8. TRUE
